tested on: Escherichia coli TOP10; test: shrunken log2 fold change of peptide-encoding DNA abundance (4.5 h post-induction vs induction); higher = less antimicrobial activity (less host growth inhibition); settings: time post-induction: 4.5 h; library: site-saturation at positions 5, 18, 19, 20;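 note: peptides expressed intracellularly from a pBAD plasmid library in pooled LB shake-flask culture, induced with 0.3% L-arabinose, DNA abundance read by NGS, three biological replicates, DESeq2 with apeglm shrinkage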
Reported shrunken log2 fold change values are given for each entry in this list.
Reply with the value as a number alone.

>>> print(df.to_string())
             sequence_text            assay_target         measured_parameter  observed_measurement
0  RRIRIRPPRLPRPRPRPAQKPRP  Escherichia coli TOP10  shrunken log2 fold change              -0.00244
1  RRIRERPPRLPRPRPRPIFAPRP  Escherichia coli TOP10  shrunken log2 fold change                  0.21
2  RRIRRRPPRLPRPRPRPGILPRP  Escherichia coli TOP10  shrunken log2 fold change                -0.174
3  RRIRCRPPRLPRPRPRPAMAPRP  Escherichia coli TOP10  shrunken log2 fold change                 0.199
4  RRIRWRPPRLPRPRPRPCKQPRP  Escherichia coli TOP10  shrunken log2 fold change                -0.156
5  RRIRHRPPRLPRPRPRPNREPRP  Escherichia coli TOP10  shrunken log2 fold change                -0.107
6  RRIRKRPPRLPRPRPRPNYQPRP  Escherichia coli TOP10  shrunken log2 fold change               -0.0219
7  RRIRLRPPRLPRPRPRPQPYPRP  Escherichia coli TOP10  shrunken log2 fold change                -0.487

Which shrunken log2 fold change is listed for RRIRMRPPRLPRPRPRPPGHPRP ?
1.03

Which shrunken log2 fold change is listed for RRIRQRPPRLPRPRPRPCLFPRP ?
-0.268

Which shrunken log2 fold change is listed for RRIRYRPPRLPRPRPRPRRIPRP ?
0.014

Which shrunken log2 fold change is listed for RRIRIRPPRLPRPRPRPLYMPRP ?
-0.918

Which shrunken log2 fold change is listed for RRIRYRPPRLPRPRPRPRFTPRP ?
-0.17

Which shrunken log2 fold change is listed for RRIRARPPRLPRPRPRPHPGPRP ?
0.219

Which shrunken log2 fold change is listed for RRIRSRPPRLPRPRPRPFYTPRP ?
-0.903

Which shrunken log2 fold change is listed for RRIRHRPPRLPRPRPRPYISPRP ?
-0.0543
